biological target: Serine/threonine-protein kinase pim-2 (Homo sapiens); assay: Inhibition of full length recombinant PIM2 (unknown origin) using biotinylated-BAD peptide as substrate assessed as phosphorylation at serine 112 after 90 mins by HTRF method
Sequence (Q9P1W9 whole entry): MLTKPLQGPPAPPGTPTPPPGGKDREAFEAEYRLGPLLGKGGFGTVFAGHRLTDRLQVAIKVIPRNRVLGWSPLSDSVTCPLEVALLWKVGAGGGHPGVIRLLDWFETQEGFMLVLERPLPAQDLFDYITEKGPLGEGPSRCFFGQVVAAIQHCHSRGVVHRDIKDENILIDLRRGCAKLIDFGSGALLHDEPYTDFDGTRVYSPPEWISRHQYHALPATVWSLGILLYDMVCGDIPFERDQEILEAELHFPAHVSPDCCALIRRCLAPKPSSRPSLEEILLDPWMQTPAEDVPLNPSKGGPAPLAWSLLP
# pIC50 per record follows
Value format note: pIC50 is -log10 of concentration (mol/L); just state the number.

Take a look at these entries with their results.
{"columns": ["COMPOUND STRING", "pIC50"],
 "data": [
  ["CC(C)Nc1cncc(-c2c[nH]c3ccc(-c4nnc(N)s4)cc23)n1", 8.00],
  ["Nc1nnc(-c2ccc3[nH]cc(-c4cncc(N5CCCC5)n4)c3c2)s1", 7.38],
  ["CC(C)Oc1cnc(-c2c[nH]c3ccc(-c4nnc(N)s4)cc23)cn1", 5.89],
  ["Nc1ncc(-c2ccc3[nH]nc(-c4cnc5ccccc5c4)c3c2)s1", 7.51]
]}

What value of pIC50 has been recorded for this entry: Nc1nnc(-c2ccc3[nH]cc(-c4cncc(NC5CCCC5)n4)c3c2)s1
8.22
